tested on: AKR/Lw mice, AKR lymphoma ip, median survival T/C; assay: NCI In Vivo Anticancer Drug Screen. Data for tumor model Lymphoma AKR (Transplanted) (intraperitoneal) in AKR/Lw mice; conditions: endpoint: median survival time; dose: 100.0 mg/kg/injection; schedule: Q01DX001 (ip); vehicle: saline with Tween-80
Inconclusive results and toxic doses are left out. How the source made its calls: active means survival T/C of 150% or more; inactive means T/C below 125% in these data.
Write down one outcome, taken from active, inactive

Query: Could you please tell me the result logged for `CC(=O)OCC(=O)[C@@]1(O)CC[C@H]2[C@@H]3C[C@H](F)C4=CC(=O)CC[C@]4(C)[C@H]3C(=O)C[C@@]21C` in this assay?
Result: inactive

Query: Could you please tell me the result logged for `O=C(Nc1cccc(Cl)c1)Oc1ccc2ccccc2c1` in this assay?
Result: inactive

Query: Could you please tell me the result logged for `O=NN(CCCl)C(=O)NC1CCCCC1` in this assay?
Result: active

----------
tested on: AKR/Lw mice, AKR lymphoma ip, median survival T/C; experiment: NCI In Vivo Anticancer Drug Screen. Data for tumor model Lymphoma AKR (Transplanted) (intraperitoneal) in AKR/Lw mice; settings: endpoint: median survival time; dose: 100.0 mg/kg/injection; schedule: Q04DX003 (ip); vehicle: Klucel (hydroxypropylcellulose) (HPC); higher = longer survival
Inconclusive results and toxic doses are left out.
A collection of molecules and their measured T/C

# count of solved cases: 5
>>> print(df.to_string())
                                   molecule            result
0                           Nc1nc(N)nc(N)n1   97 % of control
1              C=CCN(CC=C)c1ccc(N(CC)CC)cc1   97 % of control
2  Nc1ccc(OCc2ccc(S(=O)(=O)F)c(Cl)c2)c(Cl)c1   86 % of control
3  O=[N+]([O-])c1ccc(OCc2ccc(S(=O)(=O)F)c(Cl)c2)c(Cl)c1   90 % of control
4  COC(=O)C1(C)CCC(c2ccc(OC)cc2)C(CC(=O)O)C1=O (stereo unspecified)  100 % of control

# T/C of `COc1ccc(CCNC(=S)NCCc2ccc(OC)c(OC)c2)cc1OC` = 100 % of control

----------
test system: AKR/Lw mice, AKR lymphoma ip, median survival T/C; assay: NCI In Vivo Anticancer Drug Screen. Data for tumor model Lymphoma AKR (Transplanted) (intraperitoneal) in AKR/Lw mice; details: endpoint: median survival time; dose: 100.0 mg/kg/injection; schedule: Q01DX001 (ip); vehicle: Klucel (hydroxypropylcellulose) (HPC); higher = longer survival
Toxic doses and inconclusive results are not listed.
Assay readout: T/C

# count of solved cases: 2
Compound	Result
NC(CSC(c1ccccc1)(c1ccccc1)c1ccc(CO)cc1)C(=O)O (stereo not drawn)	100 % of control
COc1ccc(N2CSC(=S)N(c3ccc(OC)cc3)C2)cc1	88 % of control

# T/C of `CC(C)n1c(=S)[nH]c2ccccc2c1=O` = 90 % of control

# T/C of `CCCn1c(=S)[nH]c2ccccc2c1=O` = 103 % of control

# T/C of `CN(CCOc1ccccc1O)CCOc1ccccc1O` = 105 % of control

# T/C of `Clc1ccc(/C(=[C](\[Hg]/[C](=C(\c2ccccc2)c2ccc(Cl)cc2)c2ccccc2)c2ccccc2)c2ccccc2)cc1` = 97 % of control

# T/C of `CN(C)S(=O)(=O)Nc1cc(Cl)c(NS(=O)(=O)N(C)C)cc1Cl` = 93 % of control

----------
tested on: AKR/Lw mice, AKR lymphoma ip, median survival T/C; assay: NCI In Vivo Anticancer Drug Screen. Data for tumor model Lymphoma AKR (Transplanted) (intraperitoneal) in AKR/Lw mice; details: endpoint: median survival time; dose: 100.0 mg/kg/injection; schedule: Q01DX001 (ip); vehicle: saline; higher = longer survival
Inconclusive results and toxic doses are left out.
Assay readout: T/C

# count of solved cases: 3
In [3]: df
Out[3]:
                                   molecule            result
0                CC(=O)N(C(C)=O)c1ccc(C)cc1   93 % of control
1  COC(=O)C(COS(=O)(=O)c1ccccc1)NC(=O)OCc1ccccc1 (centres undefined)   94 % of control
2                     CC(C)(CCCl)NCc1ccccc1  102 % of control

# T/C of `O=[N+]([O-])O.[Th]` = 113 % of control

----------
system: AKR/Lw mice, AKR lymphoma ip, median survival T/C; test: NCI In Vivo Anticancer Drug Screen. Data for tumor model Lymphoma AKR (Transplanted) (intraperitoneal) in AKR/Lw mice; details: endpoint: median survival time; dose: 12.0 mg/kg/injection; schedule: Q01DX001 (ip); vehicle: saline; higher = longer survival
Inconclusive results and toxic doses are left out.
Assay readout: T/C

# count of solved cases: 3
>>> print(df.to_string())
                                   compound            result
0  CC1CCC(NC(=O)N(CCCl)N=O)CC1 (stereo unspecified)  103 % of control
1  CC[C@H]1CN2CCc3cc(OC)c(OC)cc3[C@@H]2C[C@@H]1C[C@H]1NCCc2cc(OC)c(OC)cc21  115 % of control
2          CN(C)CCCc1c2ccccc2nc2ccc(Cl)cc12  103 % of control

# T/C of `CN(C)C(=O)c1cccc(COc2ccc(N3C(N)=NC(N)=NC3(C)C)cc2Cl)c1` = 112 % of control

# T/C of `CCn1c(O)c(C=N)c(=O)n(CC)c1=O` = 97 % of control

# T/C of `Cn1c(O)c(C=N)c(=O)n(C)c1=O` = 102 % of control

----------
system: AKR/Lw mice, AKR lymphoma ip, median survival T/C; assay: NCI In Vivo Anticancer Drug Screen. Data for tumor model Lymphoma AKR (Transplanted) (intraperitoneal) in AKR/Lw mice; conditions: endpoint: median survival time; dose: 100.0 mg/kg/injection; schedule: Q04DX003 (ip); vehicle: saline; higher = longer survival
Toxic doses and inconclusive results are not listed.
Assay readout: T/C

# count of solved cases: 4
>>> print(df.to_string())
                                   molecule                              assay_system            result
0  O=C(NC(CSSCC(NC(=O)OCc1ccccc1)C(=O)O)C(=O)O)OCc1ccccc1 (stereo unspecified)  AKR/Lw mice, AKR lymphoma ip, median survival T/C  100 % of control
1             CC12CC3CC(C1)CC(C(=O)O)(C3)C2  AKR/Lw mice, AKR lymphoma ip, median survival T/C  100 % of control
2          Cc1c2ccncc2c(C)c2c1[nH]c1ccccc12  AKR/Lw mice, AKR lymphoma ip, median survival T/C  100 % of control
3                CS(=O)(=O)OCCCCOS(C)(=O)=O  AKR/Lw mice, AKR lymphoma ip, median survival T/C   92 % of control

# T/C of NC(=O)C(Br)CBr (stereo unspecified) = 89 % of control

# T/C of COc1cc2ccc(C(C)N)cc2cc1OC (stereo unspecified) = 102 % of control

# T/C of `Clc1nnc(Nc2ccccc2)c2ccccc12` = 100 % of control

----------
tested on: AKR/Lw mice, AKR lymphoma ip, median survival T/C; assay: NCI In Vivo Anticancer Drug Screen. Data for tumor model Lymphoma AKR (Transplanted) (intraperitoneal) in AKR/Lw mice; conditions: endpoint: median survival time; dose: 200.0 mg/kg/injection; schedule: Q01DX001 (ip); vehicle: Klucel (hydroxypropylcellulose) (HPC); higher = longer survival
Toxic doses and inconclusive results are not listed.
Assay readout: T/C

# count of solved cases: 6
                                   molecule            result
0  O=C(/C=C/C(=O)Oc1ccc(Cl)cc1)Oc1ccc(Cl)cc1   89 % of control
1  C/C=C(/C)N(C(C)=O)N(C(C)=O)c1ccc([N+](=O)[O-])cc1[N+](=O)[O-]   93 % of control
2      COc1ccc(-n2c(=S)[nH]c3ccccc3c2=O)cc1   87 % of control
3               O=C(Nc1ccccc1)Oc1ccc(Cl)cc1  100 % of control
4  Clc1ccc(/C(=[C](\[Hg]/[C](=C(\c2ccccc2)c2ccc(Cl)cc2)c2ccccc2)c2ccccc2)c2ccccc2)cc1  107 % of control
5                     C#CCn1cnc2c(Cl)ncnc21  104 % of control

# T/C of NC(CSC(c1ccccc1)(c1ccccc1)c1ccccc1)C(=O)O (stereo unspecified) = 109 % of control

# T/C of `COc1ccc(COC(=O)CN2C(=O)c3ccccc3C2=O)cc1` = 100 % of control

# T/C of CC(=O)NC1CC2c3ccccc3C1([N+](=O)[O-])c1ccccc12 (stereo unspecified) = 97 % of control

# T/C of `CCOC(=O)CCCl` = 111 % of control

# T/C of `CN(C)/N=N/c1nc[nH]c1C(N)=O` = 123 % of control
